# Test system: KM12 colon
# measurementProtocol: NCI tumour cell line growth inhibition, 48 h
experimentalReadout: TGI (µM)
Answers are plain numbers, in µM.

Some solved cases for reference:
Can you look up the measured TGI of `COc1ccccc1/C=C1\COc2ccc(-c3ccccc3)cc2C1=O` for me?
5.55

Can you look up the measured TGI of `COc1cc2c3c(n(CCCN)c(=O)c2cc1OC)-c1ccc([N+](=O)[O-])cc1C3=O` for me?
31

Can you look up the measured TGI of `CCCCCCCCCCCC1=NC(C)(C)CN1C(C)(C)CO` for me?
3.14

Quick request: TGI for each listed item, please.
1. O=c1c2cc(C(F)(F)F)ccc2sc2c(NCCCNCCO)nc3ccccc3c12
2. COc1cc(/C=C/c2ccc(C)cc2)cc(OC)c1OC

[3.17, 18.1]
